# System: HEK-293T
# assay_explanation: Incucyte cell viability with HEK293T; further: unitless GR value; below 1 slowed growth and below 0 cell loss
# Assay type: toxicity, cell-based
# condition_set: human, 18 h, 10 µM, compound concentration 10 uM, replicate number 2
Note to self: use Condition met only for Growth Rate readings below 0.5; a reading exactly at 0.5 still gets Condition not met.

| molecule | system | discrete_label |
| --- | --- | --- |
| COc1c(NC(=O)c2cc3cccc(Oc4ccnc(C(=O)N5CCN(C)CC5)c4)c3n2C)cc(C(C)(C)C)cc1NS(C)(=O)=O | HEK-293T | Condition not met |
| COC(=O)c1ccc2c(c1)NC(=O)/C2=C(\Nc1ccc(-c2nccn2C)cc1)c1ccccc1 | HEK-293T | Condition met |
| O=C(O)c1ccnc(N2CC(O)(c3ccc(OCc4c(-c5c(Cl)cccc5Cl)noc4C4CC4)cc3Cl)C2)c1 [CILOFEXOR] | HEK-293T | Condition not met |
| CN(C(=O)c1ccccc1)c1ccc2c(c1)nc(NC(=O)c1ccc(Br)s1)n2CCC(N)=O | HEK-293T | Condition met |
| CC(C)(C)c1ccc(NC(=O)N2CCN(c3ncccc3Cl)CC2)cc1 | HEK-293T | Condition met |
| O=C(Nc1ccc(Cl)nc1)c1ccc(Cl)cc1 | HEK-293T | Condition not met |
| COc1c(C(=O)/C=C/c2ccccc2)c(O)c(OC)c2occc12 | HEK-293T | Condition not met |
| C=CC(=O)Nc1cccc(C(=O)Nc2ccc(Nc3cc(-c4c(-c5ccc(F)cc5)nc(SC)n4C)ccn3)cc2)c1 | HEK-293T | Condition met |
| Cn1nccc1-c1ccc(Sc2cccc(C3(C(N)=O)CCOCC3)c2)cc1 | HEK-293T | Condition met |
| Cc1c(N2CCNCC2)nc2ccc(Br)cc2c1C(=O)NC[C@H](CCC(=O)O)c1ccccc1Cl | HEK-293T | Condition not met |
| O=C(Nc1cccc(Nc2nccc(Nc3cccc(C(F)(F)F)c3)n2)c1)C1CC1 | HEK-293T | Condition met |

----------
Overview of reported Growth Rate across a group of molecules:
# System: U2OS
# assay_explanation: Incucyte cell viability with U2OS; further: unitless GR value; below 1 slowed growth and below 0 cell loss
# Format: toxicity, cell-based
# condition_set: human, 0 h, 10 µM, compound concentration 10 uM, replicate number 2

| molecule | Growth Rate |
| --- | --- |
| CCCCCN1C(=O)C2(COc3cc4c(cc32)OCO4)c2ccccc21 (stereo unspecified) | -1 |
| CN1CCC[C@H]1c1cccnc1 | -1 |
| O=c1[nH]c(CS[C@H]2CC[C@H](O)CC2)nc2cc(OCC3CC3)cc(F)c12 | 0.9 |
| Cc1ccccc1C1C(=O)N(C)c2cnc(Nc3ccc(S(N)(=O)=O)cc3)nc2N1C (stereo unspecified) | -0.83 |
| Cl.Cl.Fc1ccc([C@@H]2CCNC[C@H]2COc2ccc3c(c2)OCO3)cc1.Fc1ccc([C@@H]2CCNC[C@H]2COc2ccc3c(c2)OCO3)cc1.O [PAROXETINE HYDROCHLORIDE] | -1 |
| CNC1(C)C2CCC(C2)C1(C)C.Cl (stereo unspecified) [MECAMYLAMINE HYDROCHLORIDE] | -0.76 |

----------
# Test system: HEK-293T
# assay_explanation: Incucyte cell viability with HEK293T; further: unitless GR value; below 1 slowed growth and below 0 cell loss
# Assay type: toxicity, cell-based
# condition_set: human, 18 h, 10 µM, compound concentration 10 uM, replicate number 1
Note to self: use 1 only for Growth Rate readings below 0.8; a reading exactly at 0.8 still gets -1.

| compound | discrete_label |
| --- | --- |
| Cc1ccc(NC(=O)c2ccc3cnccc3c2)cc1C(=O)Nc1cnc(Nc2cccc(NC3CCN(C(=O)/C=C/CN(C)C)CC3)c2)nc1 | 1 |
| COc1cc(N2CCC(N3CCN(C)CC3)CC2)ccc1Nc1ncc(Cl)c(Nc2ccccc2S(=O)(=O)C(C)C)n1 | 1 |
| O=C(O)/C=C/c1ccc(Cn2ccnc2)cc1 | -1 |
| COc1cc(F)ccc1-c1cc(Nc2cc(CS(C)(=N)=O)ccn2)ncc1F (stereo unspecified) | 1 |
| C=CC(=O)N1CCC[C@@H](n2nc(-c3ccc(Oc4ccccc4)cc3)c3c(N)ncnc32)C1 | 1 |
| COc1cccc(Cn2cc(C(=O)Nc3ccc(C)c(S(=O)(=O)N4CCOCC4)c3)c(-c3ccc(C)cc3)n2)c1 | -1 |
| Cc1cc(OCCC(C)(C)O)cc(C)c1-c1ccc(F)c2c1CC[C@H]2Oc1ccc2c(c1)OC[C@H]2CC(=O)O | -1 |
| CCN(c1ccccc1)c1cc(NC)[n+](C)c(C)n1.[Cl-] | 1 |
| CC(C)(O)c1cnc(N2C[C@@]3(CCC[C@](C)(Cn4cnc5ccc(C#N)cc54)C3)OC2=O)cn1 | 1 |
| CC(C)c1nc2c(c3c1[C@H](c1ccc(C(F)(F)F)cc1)OC31CCOCC1)[C@H](O)CC(C)(C)C2 | 1 |

----------
Overview of reported Growth Rate across a group of molecules:
# Test system: Fibroblast
# assay_explanation: Incucyte cell viability with human fibroblast; further: unitless GR value; below 1 slowed growth and below 0 cell loss
# Assay type: toxicity, cell-based
# condition_set: 12 h, 10 µM, compound concentration 10 uM, replicate number 1

| molecule_smiles | Growth Rate |
| --- | --- |
| O=c1cc(-c2cc(F)c(Cl)nc2Cl)[nH]c2c(-c3ccccc3)c(C(F)(F)F)nn12 | -0.36 |
| Cc1cc(-c2nc(-c3ccc(OC(F)(F)F)cc3)no2)nn1Cc1ccnc(N2CCN(C3CC3)CC2)c1 | 0.3 |
| COCCNc1nc2ccc(C#CC3(O)CCCCC3)cc2n1-c1ccnc(N)n1 | -1 |
| CC(C)(O)C(=O)N1CCN(c2ccc(C(F)(F)F)c(C3=C(c4c[nH]c5ccccc45)C(=O)NC3=O)c2)CC1 | -1 |
| Cc1cc(Nc2cc(N)ncn2)c(=O)n2c1C(=O)NC21CCCCC1 | -1 |
| CCCNc1ccc2ncc(-c3ccncc3)n2n1 | 0.2 |
| COc1ccc(-c2csc(NC(=O)[C@H]3CCCCN3S(=O)(=O)c3ccc(C)cc3)n2)cc1 | 0.31 |
| CN(C)Cc1cccc(NC(=C2C(=O)Nc3cc(C(=O)N(C)C)ccc32)c2ccccc2)c1 | 0.68 |

----------
# Tested on: Fibroblast
# assay_explanation: Incucyte cell viability with human fibroblast; further: unitless GR value; below 1 slowed growth and below 0 cell loss
# Type: toxicity, cell-based
# condition_set: 6 h, 10 µM, compound concentration 10 uM, replicate number 2
Overview of reported Growth Rate across a group of compounds:

| compound | Growth Rate |
| --- | --- |
| O=C1NCc2ccc3c(-c4cccc(Cl)c4)c[nH]c3c21 | -1 |
| Cc1nnc2n1-c1sc3c(c1C(c1ccccc1Cl)=NC2)C[C@H](C(=O)N1CCOCC1)C3 | -0.71 |
| CN(C)[C@H]1CC[C@H](Nc2ncc3ncnc(Nc4ccc(F)c(Cl)c4)c3n2)CC1 | 0.19 |
| CN(C)Cc1cccc(NC(=C2C(=O)Nc3cc(C(N)=O)ccc32)c2ccccc2)c1 | 0.24 |
| Cc1ccc(NC(=O)c2ccc(CN3CC[C@H](N(C)C)C3)c(C(F)(F)F)c2)cc1Nc1nccc(-c2cncnc2)n1 [BAFETINIB] | -0.55 |

----------
# Tested on: U2OS
# assay_explanation: Incucyte cell viability with U2OS; further: unitless GR value; below 1 slowed growth and below 0 cell loss
# Type: toxicity, cell-based
# condition_set: human, 18 h, 10 µM, compound concentration 10 uM, replicate number 2
Overview of reported Growth Rate across a group of molecules:

| molecule | Growth Rate |
| --- | --- |
| COc1cc(C(=O)NC2CCN(C)CC2)ccc1Nc1ncc(C(F)(F)F)c(NCc2ccc(C)cc2N(C)S(C)(=O)=O)n1.O=CO.O=CO | -0.46 |
| NC(=O)c1sc2nc(N3CCC(NC[C@H](O)c4ccccn4)CC3)cc(C(F)(F)F)c2c1N | 0.69 |
| COCCc1ccc(-c2c(C)nc3c(N4CCOCC4)ccnn23)cn1 | 0.99 |
| CC(C1CC2CCC1C2)n1c(S)nnc1-c1ccco1 (stereo unspecified) | 0.78 |
| COc1ccc2c(O[C@@H]3C[C@H]4C(=O)N[C@]5(C(=O)NS(=O)(=O)C6(C)CC6)CC5/C=C\CCCCC[C@H](NC(=O)c5ccn(C)n5)C(=O)N4C3)cc(OC(C)C)nc2c1C (stereo partly specified) | 0.79 |
| Cn1c(=O)n(CCCO)c(=O)c2c1nc(Oc1cccc(Cl)c1)n2Cc1ccc(Cl)cc1 | 0.82 |
| CNC1(C)C2CCC(C2)C1(C)C.Cl (stereo unspecified) [MECAMYLAMINE HYDROCHLORIDE] | 0.64 |
| O=S(=O)(Nc1nncs1)c1cc(Cl)c(Oc2ccc(C(F)(F)F)cc2-c2ccnn2C2CNC2)cc1F | 1 |
| Cc1nccn1CC1CCc2c(c3ccccc3n2C)C1=O.Cl (stereo unspecified) | 0.88 |
| CC[C@H](C(=O)Nc1ccccc1N1CCCC1)c1ccccc1 | 0.84 |
| CCN(C(=O)c1cc(F)ccc1Oc1cncnc1N1CC2(CCN(C[C@H]3CC[C@H](NS(=O)(=O)CC)CC3)CC2)C1)C(C)C | 0.76 |

Values were extracted from ChEMBL document CHEMBL5303304.
